Cited source for all entries: ChEMBL document CHEMBL5634138

- assay-name: Cytotoxicity against CHO cells assessed as inhibition of cell growth at 10 uM incubated overnight by MTS assay reltive to control
- Format: toxicity, cell-based, Cricetulus griseus
- experimental-setup: chinese hamster, CHO cells, read-out: Activity
Entry flag: YES if inhibition at 10 µM reaches 5%; NO if it does not.

For orientation, consider the following solved cases.
compound-structure: CCCCC(=O)N(Cc1ccc(-c2ccccc2CCC(=O)O)cc1)c1ccccc1
category-label: NO
--
compound-structure: CCCCC(=O)N(Cc1ccc(-c2ccccc2CC(=O)O)cc1)c1ccccc1
category-label: YES
--
compound-structure: CCCCC(=O)N(Cc1ccc(-c2ccc(OC)cc2)cc1)c1cccc(F)c1
category-label: YES

Switching to the query record.
Has CCCCC(=O)N(Cc1ccc(-c2ccc(O)cc2)cc1)c1cccc(C)c1 a recorded inhibition at 10 µM greater than or equal to 5%?
YES

====

- assay-name: Clearance in rat at 2 mg/kg, iv
- Type: ADME, organism-based
- experimental-setup: in vivo
endpoint-label: clearance

Entry CCCCC(=O)N(Cc1ccc(-c2ccc(OCC(=O)O)cc2)cc1)c1cccc(F)c1 has what clearance?
54 mL/min/kg

====

- assay-name: Cmax in rat at 20 mg/kg, po administered as suspension
- Type: ADME, organism-based
- experimental-setup: in vivo
endpoint-label: Cmax (ng/mL)
Give bare numbers, in ng/mL.

Entry CCCCC(=O)N(Cc1ccc(-c2ccc(OCC(=O)O)cc2)cc1)c1cccc(F)c1 has what Cmax?
700

====

Protein target, amino acids: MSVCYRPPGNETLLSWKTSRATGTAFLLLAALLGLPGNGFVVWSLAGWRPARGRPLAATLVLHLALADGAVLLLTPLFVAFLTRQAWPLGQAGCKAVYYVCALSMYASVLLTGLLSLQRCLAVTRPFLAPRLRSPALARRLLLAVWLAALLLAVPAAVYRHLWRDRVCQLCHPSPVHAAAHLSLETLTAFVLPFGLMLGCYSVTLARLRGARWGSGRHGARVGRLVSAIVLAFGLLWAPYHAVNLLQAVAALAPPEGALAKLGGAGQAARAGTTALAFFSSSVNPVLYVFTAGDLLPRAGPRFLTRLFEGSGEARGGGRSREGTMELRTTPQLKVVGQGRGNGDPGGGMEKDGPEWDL
endpoint-label: pKi
Give bare numbers, as −log10 of the molar value.

Entry CCCCC(=O)N(Cc1ccc(-c2ccc(OCC(=O)O)cc2)cc1)c1cccc(F)c1 has what pKi?
6.88

====

- assay-name: Apparent volume of distribution in rat at 2 mg/kg, iv
- Format: ADME, organism-based
- experimental-setup: in vivo, read-out: Vd(app)
endpoint-label: Vd (L/kg)
Give bare numbers, in L/kg.

Entry CCCCC(=O)N(Cc1ccc(-c2ccc(OCC(=O)O)cc2)cc1)c1cccc(F)c1 has what Vd?
4.2

====

- assay-name: AUC infinity in rat at 2 mg/kg, iv
- Assay type: ADME, organism-based
- experimental-setup: in vivo
endpoint-label: AUC(0-inf) (ng·h/mL)
Numbers only, in ng·h/mL.

Entry CCCCC(=O)N(Cc1ccc(-c2ccc(OCC(=O)O)cc2)cc1)c1cccc(F)c1 has what AUC(0-inf)?
600

====

Could you please report measured remaining at 0.5 h for the items listed next?
- assay-name: Metabolic stability in mouse liver microsomes assessed as parent compound remaining measured after 30 mins in absence of […]
- Type: ADME, Microsome
- experimental-setup: read-out: Stability
Numbers only, in %.

compound-structure: CCCCC(=O)N(Cc1ccc(-c2ccc(O)cc2)cc1)c1cccc(F)c1
remaining at 0.5 h (%): 90.4

# ---- query compound ----
Entry CCCCC(=O)N(Cc1ccc(-c2ccc(OCC(=O)O)cc2)cc1)c1cccc(F)c1 has what remaining at 0.5 h?
92.9

====

- assay-name: AUC infinity in rat at 20 mg/kg, po administered as solution
- Assay type: ADME, organism-based
- experimental-setup: in vivo
endpoint-label: AUC(0-inf) (ng·h/mL)
Give bare numbers, in ng·h/mL.

Entry CCCCC(=O)N(Cc1ccc(-c2ccc(OCC(=O)O)cc2)cc1)c1cccc(F)c1 has what AUC(0-inf)?
2200

====

- assay-name: Metabolic stability in mouse liver microsomes assessed as parent compound remaining measured after 30 mins in presence of NADPH
- Assay type: ADME, Microsome
- experimental-setup: read-out: Stability
endpoint-label: remaining at 0.5 h (%)
Give bare numbers, in %.

compound-structure: CCCCC(=O)N(Cc1ccc(-c2ccc(OCC(=O)O)cc2)cc1)c1cccc(F)c1
measured-number: 67.8

# ---- query compound ----
Entry CCCCC(=O)N(Cc1ccc(-c2ccc(O)cc2)cc1)c1cccc(F)c1 has what remaining at 0.5 h?
2.2

====

- assay-name: Metabolic stability in mouse liver microsomes assessed as parent compound remaining measured after 30 mins in presence of […]
- Type: ADME, Microsome
- experimental-setup: read-out: Stability
Could you please report measured remaining at 0.5 h for the items listed next?
Answers are plain numbers, in %.

compound-structure: CCCCC(=O)N(Cc1ccc(-c2ccc(OCC(=O)O)cc2)cc1)c1cccc(F)c1
unit-string: %
measured-number: 91.7

# ---- query compound ----
Entry CCCCC(=O)N(Cc1ccc(-c2ccc(O)cc2)cc1)c1cccc(F)c1 has what remaining at 0.5 h?
70.1

====

- assay-name: Cmax in rat at 20 mg/kg, po administered as solution
- Type: ADME, organism-based
- experimental-setup: in vivo
endpoint-label: Cmax (ng/mL)
Numbers only, in ng/mL.

Entry CCCCC(=O)N(Cc1ccc(-c2ccc(OCC(=O)O)cc2)cc1)c1cccc(F)c1 has what Cmax?
1100

====

- test-target: UniProt Q9JJL9
- Sequence (Q9JJL9 whole entry): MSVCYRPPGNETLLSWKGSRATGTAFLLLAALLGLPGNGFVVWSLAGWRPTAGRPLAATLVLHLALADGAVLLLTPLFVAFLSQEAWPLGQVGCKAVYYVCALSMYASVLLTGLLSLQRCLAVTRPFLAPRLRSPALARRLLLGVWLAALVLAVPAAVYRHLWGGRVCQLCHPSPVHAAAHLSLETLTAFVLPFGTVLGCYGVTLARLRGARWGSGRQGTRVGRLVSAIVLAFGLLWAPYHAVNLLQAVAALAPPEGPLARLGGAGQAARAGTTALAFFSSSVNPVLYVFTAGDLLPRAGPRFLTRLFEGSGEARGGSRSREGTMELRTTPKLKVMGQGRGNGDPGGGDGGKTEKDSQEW
- assay-name: Agonist activity at mouse BLT2 expressed in CHO cells assessed as induction of calcium accumulation
endpoint-label: EC50 (µM)
One number for each entry, in µM.

Entry CCCCC(=O)N(Cc1ccc(-c2ccccc2C(=O)O)cc1)c1ccccc1 has what EC50?
0.02

====

- assay-name: Half life in rat at 2 mg/kg, iv
- Format: ADME, organism-based
- experimental-setup: in vivo
endpoint-label: half-life (h)
Answers are plain numbers, in h.

Entry CCCCC(=O)N(Cc1ccc(-c2ccc(OCC(=O)O)cc2)cc1)c1cccc(F)c1 has what half-life?
1.4

====

- assay-name: Metabolic stability in mouse liver microsomes assessed as parent compound remaining measured after 30 mins in absence of NADPH
- Assay type: ADME, Microsome
- experimental-setup: read-out: Stability
Could you please report measured remaining at 0.5 h for the items listed next?
Numbers only, in %.

compound-structure: CCCCC(=O)N(Cc1ccc(-c2ccc(OCC(=O)O)cc2)cc1)c1cccc(F)c1
remaining at 0.5 h (%): 88.3

# ---- query compound ----
Entry CCCCC(=O)N(Cc1ccc(-c2ccc(O)cc2)cc1)c1cccc(F)c1 has what remaining at 0.5 h?
84.2
